# Tested on: T-Rex 293 cell line SC cells having increased expression of BCL6 protein
# procedure-details: Cellular growth inhibition assay, T-Rex 293 SC cells with doxycycline (CellTiter-Glo)
# Format: cell-based
# experimental-context: T-Rex 293 SC cells with 10 ng/mL doxycycline (increased BCL6 expression), 72 hours, CellTiter-Glo 2.0
The following compounds are listed with their measured GI50 values.
readout: GI50

# compound, endpoint-value
records = [
    ("CNC(=O)COc1cc2cc(Nc3nc(N4CCC(N5CCN(Cc6cccc(Oc7ccc(C(C)(C)O)cc7-c7cn(C)c(=O)c8[nH]ccc78)c6)CC5)CC4)ncc3Cl)ccc2n(C)c1=O", "< 500 nM"),
    ("CNC(=O)COc1cc2cc(Nc3nc(N4CCC(CN5CCC6(CC5)CC(CC5CC(Oc7ccc(C(C)(C)O)cc7-c7cn(C)c(=O)c8[nH]ccc78)C5)C6)CC4)ncc3Cl)ccc2n(C)c1=O (stereo not shown) [Compound I-54]", "< 500 nM"),
    ("CNC(=O)COc1cc2cc(Nc3nc(N4CCN(CCN5CCN(CCOc6cccc(Oc7ccc(C(C)(C)O)cc7-c7cn(C)c(=O)c8[nH]ccc78)c6)CC5)CC4)ncc3Cl)ccc2n(C)c1=O", "< 500 nM"),
    ("CNC(=O)COc1cc2cc(Nc3nc(N4CCC5(CC4)CC(Oc4ccc(C6=N[C@@H](Cc7ncco7)c7nnc(C)n7-c7sc(C)c(C)c76)cc4)C5)ncc3Cl)ccc2n(C)c1=O", "< 500 nM"),
    ("CNC(=O)COc1cc2cc(Nc3nc(N4CCC(CN5CCN(Cc6ccc(Oc7ccc(C(C)(C)O)cc7-c7cn(C)c(=O)c8[nH]ccc78)cc6)CC5)CC4)ncc3Cl)ccc2n(C)c1=O", "< 500 nM"),
    ("CNC(=O)COc1cc2cc(Nc3nc(N4CCC(CCN5CCN(CCN(C)[C@H]6C[C@H](Oc7ccc(C(C)(C)O)cc7-c7cn(C)c(=O)c8[nH]ccc78)C6)CC5)CC4)ncc3Cl)ccc2n(C)c1=O", "< 500 nM"),
    ("CCS(=O)(=O)Nc1ccc(Oc2ccc(OCCCN3CCN(CC4CCN(c5ncc(Cl)c(Nc6ccc7c(c6)cc(OCC(=O)NC)c(=O)n7C)n5)CC4)CC3)cc2)c(-c2cn(C)c(=O)c3[nH]ccc23)c1", "< 500 nM"),
    ("CNC(=O)COc1cc2cc(Nc3nc(N4CCC(CCCN5CCN(CCN(C)[C@H]6C[C@H](Oc7ccc(C(C)(C)O)cc7-c7cn(C)c(=O)c8[nH]ccc78)C6)CC5)CC4)ncc3Cl)ccc2n(C)c1=O", "< 500 nM"),
    ("CNC(=O)COc1cc2cc(Nc3nc(N4CCCC5(CC(Oc6ccc(C7=N[C@@H](Cc8ncco8)c8nnc(C)n8-c8sc(C)c(C)c87)cc6)C5)C4)ncc3Cl)ccc2n(C)c1=O (stereo partly shown)", "< 500 nM"),
    ("CNC(=O)COc1cc2cc(Nc3nc(N4CCC(CN5CC(Oc6ccc(C7=N[C@@H](Cc8ncco8)c8nnc(C)n8-c8sc(C)c(C)c87)cc6)C5)CC4)ncc3Cl)ccc2n(C)c1=O", "< 500 nM"),
    ("CNC(=O)COc1cc2cc(Nc3nc(N4CCC(N5CCN(Cc6ccc(Oc7ccc(C(C)(C)O)cc7-c7cn(C)c(=O)c8[nH]ccc78)cc6)CC5)CC4)ncc3Cl)ccc2n(C)c1=O", "< 500 nM"),
    ("CCS(=O)(=O)Nc1ccc(Oc2cccc(OCCN3CCN(CCN4CCN(c5ncc(Cl)c(Nc6ccc7c(c6)cc(OCC(=O)NC)c(=O)n7C)n5)CC4)CC3)c2)c(-c2cn(C)c(=O)c3[nH]ccc23)c1", "< 500 nM"),
    ("CCS(=O)(=O)Nc1ccc(Oc2ccc(OCCCCN3CCN(CC4CCN(c5ncc(Cl)c(Nc6ccc7c(c6)cc(OCC(=O)NC)c(=O)n7C)n5)CC4)CC3)cc2)c(-c2cn(C)c(=O)c3[nH]ccc23)c1", "< 500 nM"),
    ("CNC(=O)COc1cc2cc(Nc3nc(N4CCN(CCN(C)C5CC(Oc6ccc(C(C)(C)O)cc6-c6cn(C)c(=O)c7[nH]ccc67)C5)CC4)ncc3Cl)ccc2n(C)c1=O (stereo not shown)", "< 500 nM"),
    ("CNC(=O)COc1cc2cc(Nc3nc(N4CCC(CN5CCN(CC[C@H]6C[C@@H](Oc7ccc(C(C)(C)O)cc7-c7cn(C)c(=O)c8[nH]ccc78)C6)CC5)CC4)ncc3Cl)ccc2n(C)c1=O", "< 500 nM"),
    ("CNC(=O)COc1cc2cc(Nc3nc(N4CCC5(CC4)CC(Oc4ccc(C6=N[C@@H](C)c7nnc(C)n7-c7sc(C)c(C)c76)cc4)C5)ncc3Cl)ccc2n(C)c1=O", "< 500 nM"),
    ("CCS(=O)(=O)Nc1ccc(Oc2cccc(OCCCCN3CCN(CC4CCN(c5ncc(Cl)c(Nc6ccc7c(c6)cc(OCC(=O)NC)c(=O)n7C)n5)CC4)CC3)c2)c(-c2cn(C)c(=O)c3[nH]ccc23)c1", "< 500 nM"),
    ("CCS(=O)(=O)Nc1ccc(Oc2ccc(CCN3CCN(CC4CCN(c5ncc(Cl)c(Nc6ccc7c(c6)cc(OCC(=O)NC)c(=O)n7C)n5)CC4)CC3)cc2)c(-c2cn(C)c(=O)c3[nH]ccc23)c1", "< 500 nM"),
    ("CNC(=O)COc1cc2cc(Nc3nc(N4CCC(CN5CCN(CCN(C)[C@H]6C[C@H](Oc7ccc(C(C)(C)O)cc7-c7cn(C)c(=O)c8[nH]ccc78)C6)CC5)CC4)ncc3Cl)ccc2n(C)c1=O", "< 500 nM"),
]

====

The following molecules are listed with their measured IC50 values.
# system-under-test: His-tagged BRD4 BD2 (333-460) (Homo sapiens)
# Construct: The same assay was developed for His-tagged BRD4 BD2 (333-460) and biotinylated histone H4K5/8/12/16(Ac) peptide
# procedure-details: AlphaLISA competition assay, BRD4 BD2
# experimental-context: BRD4-BD2, AlphaLISA competition with biotinylated histone H4K5/8/12/16(Ac) peptide, 20 nM
readout: IC50

# molecule, endpoint-value
rows = [
    ("CCS(=O)(=O)Nc1ccc(Oc2ccc(OCCCN3CCN(CC4CCN(c5ncc(Cl)c(Nc6ccc7c(c6)cc(OCC(=O)NC)c(=O)n7C)n5)CC4)CC3)cc2)c(-c2cn(C)c(=O)c3[nH]ccc23)c1 [Compound I-8]", "5 to 50 nM"),
    ("CNC(=O)COc1cc2cc(Nc3nc(N4CCC5(CC4)CC(Oc4ccc(C6=N[C@@H](Cc7ncco7)c7nnc(C)n7-c7sc(C)c(C)c76)cc4)C5)ncc3Cl)ccc2n(C)c1=O [Compound I-25]", "< 5 nM"),
    ("CNC(=O)COc1cc2cc(Nc3nc(N4CCCC5(CN(C[C@H]6C[C@H](Oc7ccc(C(C)(C)O)cc7-c7cn(C)c(=O)c8[nH]ccc78)C6)C5)C4)ncc3Cl)ccc2n(C)c1=O [Compound I-41]", "> 500 nM"),
    ("CNC(=O)COc1cc2cc(Nc3nc(N4CCC(N5CCN(Cc6cccc(Oc7ccc(C(C)(C)O)cc7-c7cn(C)c(=O)c8[nH]ccc78)c6)CC5)CC4)ncc3Cl)ccc2n(C)c1=O [Compound I-40]", "< 5 nM"),
    ("CCS(=O)(=O)Nc1ccc(Oc2ccc(OCCN3CCN(CC4CCN(c5ncc(Cl)c(Nc6ccc7c(c6)cc(OCC(=O)NC)c(=O)n7C)n5)CC4)CC3)cc2)c(-c2cn(C)c(=O)c3[nH]ccc23)c1 [Compound I-7]", "5 to 50 nM"),
]

====

# system-under-test: His-tagged BRD4 BD2 (333-460) (Homo sapiens)
# Construct: The same assay was developed for His-tagged BRD4 BD2 (333-460) and biotinylated histone H4K5/8/12/16(Ac) peptide
# procedure-details: AlphaLISA competition assay, BRD4 BD2
# experimental-context: BRD4-BD2, AlphaLISA competition with biotinylated histone H4K5/8/12/16(Ac) peptide, 20 nM
readout: IC50

# molecule, endpoint-value
records = [
    ("CCS(=O)(=O)Nc1ccc(Oc2cccc(OCCCCN3CCN(CC4CCN(c5ncc(Cl)c(Nc6ccc7c(c6)cc(OCC(=O)NC)c(=O)n7C)n5)CC4)CC3)c2)c(-c2cn(C)c(=O)c3[nH]ccc23)c1 [Compound I-9]", "5 to 50 nM"),
    ("CCS(=O)(=O)Nc1ccc(Oc2cccc(OCCN3CCN(CCCC4CCN(c5ncc(Cl)c(Nc6ccc7c(c6)cc(OCC(=O)NC)c(=O)n7C)n5)CC4)CC3)c2)c(-c2cn(C)c(=O)c3[nH]ccc23)c1 [Compound I-11]", "5 to 50 nM"),
    ("CNC(=O)COc1cc2cc(Nc3nc(N4CCC(CCN5CCN(CCOc6cccc(Oc7ccc(C(C)(C)O)cc7-c7cn(C)c(=O)c8[nH]ccc78)c6)CC5)CC4)ncc3Cl)ccc2n(C)c1=O [Compound I-24]", "< 5 nM"),
]

The origin of these recorded values is patent US20260028338A1.
